test system: DAUDI (human lymphoma B); experiment: Toxicity on nucleated cells, DAUDI human lymphoma B; assay type: cell-based; conditions: 1 hour 30, trypan blue, 90 min, read-out: LD 50 (concentration leading to a mortality of 50%)
measurement.kind: CC50

Solved entries:
molecule | CC50
C[C@@H]1[C@H](O)[C@@H](C)/C=C/C=C/C=C/C=C/C=C/C=C/C=C/[C@H](O[C@@H]2O[C@H](C)[C@@H](O)[C@H](NCC3(O)O[C@H](C(N)=O)[C@@H](O)[C@@H]3O)[C@@H]2O)C[C@@H]2O[C@](O)(C[C@@H](O)C[C@@H](O)[C@H](O)CC[C@@H](O)C[C@@H](O)CC(=O)O[C@H]1C)C[C@H](O)[C@H]2C(=O)O (some centres unmarked) [AmB 12 G] | > 300 µM
C[C@@H]1[C@H](O)[C@@H](C)/C=C/C=C/C=C/C=C/C=C/C=C/C=C/[C@H](O[C@@H]2O[C@H](C)[C@@H](O)[C@H](NCC(=O)[C@@H](O)[C@@H]3OC(c4ccccc4)OC[C@H]3O)[C@@H]2O)C[C@@H]2O[C@](O)(C[C@@H](O)C[C@@H](O)[C@H](O)CC[C@@H](O)C[C@@H](O)CC(=O)O[C@H]1C)C[C@H](O)[C@H]2C(=O)O (some centres unmarked) | 500 µM
C[C@@H]1[C@H](O)[C@@H](C)/C=C/C=C/C=C/C=C/C=C/C=C/C=C/[C@H](O[C@@H]2O[C@H](C)[C@@H](O)[C@H](NCC3(O)O[C@H](C(=O)O)[C@@H](O)[C@@H]3O)[C@@H]2O)C[C@@H]2O[C@](O)(C[C@@H](O)C[C@@H](O)[C@H](O)CC[C@@H](O)C[C@@H](O)CC(=O)O[C@H]1C)C[C@H](O)[C@H]2C(=O)O (stereo partly drawn) [AmB 17 G, 1-amino-1-deoxy-D-arabinoglucuronyl-AmB] | 300 µM
CC(=O)NC[C@H]1OC(O)(CN[C@@H]2[C@H](O)[C@H](O[C@H]3/C=C/C=C/C=C/C=C/C=C/C=C/C=C/[C@H](C)[C@@H](O)[C@@H](C)[C@H](C)OC(=O)C[C@H](O)C[C@H](O)CC[C@@H](O)[C@H](O)C[C@H](O)C[C@]4(O)C[C@H](O)[C@@H](C(=O)O)[C@H](C3)O4)O[C@H](C)[C@H]2O)[C@@H](O)[C@@H]1O (some centres unmarked) [AmB 23 G] | 300 µM

CC50 in this record for C[C@@H]1[C@H](O)[C@@H](C)/C=C/C=C/C=C/C=C/C=C/C=C/C=C/[C@H](O[C@@H]2O[C@H](C)[C@@H](O)[C@H](NCC3(O)O[C@H](C(N)=O)[C@@H](O)[C@@H]3O)[C@@H]2O)C[C@@H]2O[C@](O)(C[C@@H](O)C[C@@H](O)[C@H](O)CC[C@@H](O)C[C@@H](O)CC(=O)O[C@H]1C)C[C@H](O)[C@H]2C(=O)O (some centres unmarked) [AmB 12 F] : > 1000 µM

* * *

HC50 by entry:
test system: red corpuscles; assay: Toxicity on red corpuscles (lysis), mice; type: cell-based; details: 37° C., 1 hour 30, 90 min, 90 min, read-out: LD 50 (dose which leads to lysis in 50% of the erythrocytes)
// note: answer is a bare numeric in µM

compound | experimental.result
CC(=O)NC[C@H]1OC(O)(CN[C@@H]2[C@H](O)[C@H](O[C@H]3/C=C/C=C/C=C/C=C/C=C/C=C/C=C/[C@H](C)[C@@H](O)[C@@H](C)[C@H](C)OC(=O)C[C@H](O)C[C@H](O)CC[C@@H](O)[C@H](O)C[C@H](O)C[C@]4(O)C[C@H](O)[C@@H](C(=O)O)[C@H](C3)O4)O[C@H](C)[C@H]2O)[C@@H](O)[C@@H]1O (stereo partly drawn) [AmB 23 G] | 4
C[C@@H]1[C@H](O)[C@@H](C)/C=C/C=C/C=C/C=C/C=C/C=C/C=C/[C@H](O[C@@H]2O[C@H](C)[C@@H](O)[C@H](NCC3(O)O[C@H](C(=O)O)[C@@H](O)[C@@H]3O)[C@@H]2O)C[C@@H]2O[C@](O)(C[C@@H](O)C[C@@H](O)[C@H](O)CC[C@@H](O)C[C@@H](O)CC(=O)O[C@H]1C)C[C@H](O)[C@H]2C(=O)O (stereo partly drawn) [AmB 17 G, 1-amino-1-deoxy-D-arabinoglucuronyl-AmB] | 10

Next:
Looking up CC1OC[C@@H](O)[C@H]([C@H](O)C(=O)CN[C@@H]2[C@H](O)[C@H](O[C@H]3/C=C/C=C/C=C/C=C/C=C/C=C/C=C/[C@H](C)[C@@H](O)[C@@H](C)[C@H](C)OC(=O)C[C@H](O)C[C@H](O)CC[C@@H](O)[C@H](O)C[C@H](O)C[C@]4(O)C[C@H](O)[C@@H](C(=O)O)[C@H](C3)O4)O[C@H](C)[C@H]2O)O1 (stereo partly drawn) [AmB 22 F] , I see its HC50 listed as 90
